- Tested on: MS2 coat protein
- PROTOCOL_DETAILS: apparent KD of MS2 coat protein; designed switch direction (-1 OFF switch, 1 ON switch): 1; higher = weaker reporter binding
- CONDITIONS_USED: input ligand: microRNA oligo, concentration not stated
Criterion: apparent KD of MS2 coat protein meeting or surpassing 70 nM. Met: True. Not met: False.

Please review the entries below; each comes with its answer.
UGUUGUAUUACAGGAUAUCUAGUAUUUUUGUUUAGAGAAGGGUAUUCACAUGAGGAUCACCCAUGUAUAUACGAGGAAGUUGUG [JMF's solution 47] (Eterna round: R96, puzzle: Same State NG 1) : False
GCUAGAAUUAAAGCCAACAUGAGGAUCACCCAUGUAUGUUGGCAGGAUAUCGUUUGCAAAGCAAACGAGAAGGGCUAAACUAGC [Mat - Same State NG 3 - JL Mod - D4] (Eterna round: R96, puzzle: Same State NG 3) : True
UUACUCAUGUAAGGAUAUGCAGCCGUUUCGGCUGCAGAAGGUACUAUAAUACAUGAGGAUCACCCAUGUCUCUAUUAUUUAGUG [salish99_SSNG1_r04_922] (Eterna round: R96, puzzle: Same State NG 1) : False
AUUCUUAAUGCAGGAUAUGAUUAACAUGAGGAUCACCCAUGUGGUGUUGUGAGUAAGGAGAGUGAUCAGAAGGGCAUUUUUUUU [JMF's solution 32] (Eterna round: R96, puzzle: Same State NG 2) : True
UGACACACGGCAGGAUAUCGAUUGCAAAGCAAUCGAGAAGGGCCUCAUGUCGUGGAAACGUGACAUGAGGAUCACCCAUGUUGC [Omei SS(NG)1 Cv14] (Eterna round: R96, puzzle: Same State NG 1) : False
AACAUGAGGAUCACCCAUGUCAGGUCGCCAACCUACAUGAGGAAGGAUAUAGCCUCGAAUAUUGGCUAGAAGGUCCUCAUGAAU [Tieson] (Eterna round: R96, puzzle: Same State NG 3) : False

Lookup: Record UGUUGUAUUACAGGAUAUCUAUUAUUUUUUUUUAGAGAAGGGUAUUCACAUGAGGAUCACCCAUGUAUAUACGAGGAAGUUGUG [JMF's solution 23] (Eterna round: R96, puzzle: Same State NG 1) ; criterion: apparent KD of MS2 coat protein no lower than 70 nM. Met?
Found: False

Lookup: Could you tell me if the measured apparent KD of MS2 coat protein of CCAUAGUACAAUUUAGAUCUACAUGAGGAUCACCCAUGUACUGAGGAUAUCAGCUCGAAUAGAGCUGAGAAGGCAGAAUUAAUU [SSNG3/5-A1] (Eterna round: R96, puzzle: Same State NG 3) reaches 70 nM or more?
Found: True

Lookup: Confirm if apparent KD of MS2 coat protein reported for the sequence AUACAUGAGGAUCACCCAUGUAAUUAAUUAAUUAAUAAGAUCAAGGAUAUCAGCUCGAUUAGAGCUGAGAAGGUGAUCACAUGU [SSNG3/21-D2] (Eterna round: R96, puzzle: Same State NG 3) is 70 nM or above.
Found: True

Lookup: Does GGACGUCAAUAUGAAUUCCACAUGAGGAUCACCCAUGUUCAUGAGGAUAUGGAUCCUAAUUGGAUCCAGAAGGCAUGGACGUCC [Fiskers NG3ss - 38] (Eterna round: R96, puzzle: Same State NG 3) have a reported apparent KD of MS2 coat protein of at least 70 nM?
Found: True

Lookup: Check this sequence for apparent KD of MS2 coat protein at or above 70 nM: UCAGUCAUGUAAGGAUAUGCAGCCGAAACGGCUGCAGAAGGUACUAUAAUUACAUGAGGAUCACCCAUGUUAUAAAAUAAAUAU [Mat - Same State NG 1 - JL mod - D65] (Eterna round: R96, puzzle: Same State NG 1)
Found: False

Lookup: Exam item: decide whether the reported apparent KD of MS2 coat protein for GCGUUUAACGUAGGAUAUCGACCUACAUGAGGAUCACCCAUGUCUUUGUAUAGUUUUUUUUGUUACGAGAAGGACGUUUUGCAU [JR_SSNG2_Sub070] (Eterna round: R96, puzzle: Same State NG 2) is at least 70 nM.
Found: True

Lookup: Does CUGAGCAAUCAAGGAUAUCACGUCGUUUAGACGUGAGAAGGUGAUCAUAACAUGAGGAUCACCCAUGUAUUACAUGAAGCUCAG [SSNG1/1-A3] (Eterna round: R96, puzzle: Same State NG 1) have a reported apparent KD of MS2 coat protein of at least 70 nM?
Found: True

Lookup: Dear colleague, could you confirm whether GAGAGACGAUUAGGAUAUCCGGUGAUAAUGAUAGGAGAAGGAAUUGACAUGAGGAUCACCCAUGUGGGAAUAAUCCAGAGAGAG [Parity 24 - Jieux - Same State NG 1] (Eterna round: R96, puzzle: Same State NG 1) has apparent KD of MS2 coat protein at or above 70 nM?
Found: False

====

- Test system: K4 kissing-loop RNA reporter
- PROTOCOL_DETAILS: apparent KD of K4 kissing-loop reporter; higher = weaker reporter binding
- CONDITIONS_USED: Eterna round: R107; input ligand: none
OUTCOME_MEASURE: apparent KD of K4 kissing-loop reporter (µM)
Please state the figure in µM; there is no need to write the unit.

Past entries and their recorded results:
AAGCAGUCACUCGACGCCAUCGAAGAUGGGCGAGGACCGGUACGGCCGCCACUCGGAGUGAUGUUCCGAAGACUGCAAAAUAAAA [MatMod 6 - Jieux - Exclusion - Tryptophan A] : 0.384
UGUCAUUGGUCUGAUACCAGAAGAUAAUCUGGAGUGAUGUUCCAAGUACGACAAAGUCGCUUCCCUUGGCAGCAGACCGAUGACU [TheoBS 19 #SwitchBubble 13 #StaticStem] : 1.11

// switching to the query sequence
Lookup: What measured apparent KD of K4 kissing-loop reporter goes with "UCCUGCAAUCAACCACGAAAGUGGUUCGAUACCAGAGUCGAAAGACUCCCUUGGCAGCGAGUGAUGUUCGAGCAGGUAAAAUAAA" ?
Found: 0.754

====

- Tested on: K4 kissing-loop RNA reporter;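 also: bound reporter read as fluorescence of individual clusters on recovered sequencing chips by microscopy, with normalized cluster intensities fitted with a binding model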
- PROTOCOL_DETAILS: apparent KD of K4 kissing-loop reporter; higher = weaker reporter binding
- CONDITIONS_USED: Eterna round: R107; input ligand: theophylline 20 uM
Listed here are sequences together with their documented apparent KD of K4 kissing-loop reporter.
Answer format reminder: number followed by unit.

// worked examples, apparent KD of K4 kissing-loop reporter included
AUAUCUGAUAGCAGUGAUGUUGCUUCAGAUACCAGACGAGAUCAUGUCCCUUGGCAGCUGACACGGCACGUGCUAGGUUAGAUGA [Theo A Ex t2] : 103 nM
UCUGAAUUAUCUGAUACCAGACUUUUUGUAUUUAUUAAAACUAGUGAUGUUAGUUUAUCUGUCCCUUGGCAGCAGUUUCUACAGA [JR_Nu_ExcTheophyB_Sub022] : 90.8 nM
UAAAUCACACGAGAUACCAGCCAAACCGAACUUGAGCACUAUAGUGAUGUUAUAUUGCGAGGCCCUUGGCAGCUCAAUAGAACAA [theeternabot_sameState_KL_Theo_B_11] : 145 nM

Lookup: Quick check: apparent KD of K4 kissing-loop reporter of "CCUCACGUAGGACUAGUGAUGUUAGACUACCGAGGACCGGUACGGCCGCCACUCGUCGUACAAGAUAACCAUCUGCCAGUAUACA" ?
Found: 107 nM

Lookup: I have this sequence here, CAUACGCAUGGAGGAUAUGAGAAUUCUCAUGUCAUUUAAUAUUCUCAGUGAUGUUGAGGAUGUGGCUCAGAAGGCCAUGUGUAUG [Ex FMN B 21] , and I need its recorded apparent KD of K4 kissing-loop reporter.
Found: 366 nM

====

- System: MS2 coat protein
- PROTOCOL_DETAILS: apparent KD of MS2 coat protein; designed switch direction (-1 OFF switch, 1 ON switch): -1; higher = weaker reporter binding
- CONDITIONS_USED: Eterna round: R95; input ligand: microRNA oligo, concentration not stated
Respond with true for apparent KD of MS2 coat protein values of 40 nM and above, false for values below.

A selection of reference data follows.
AAGAAACAUGAGGAUCACCCAUGUGAGGAUAUGAAAAAUAAAAUAAAAGAAAUAAUAAUCAGAAGGCACAAAGG [Mat - Mod of Hog D8] (puzzle: Exclusion 1) : false
GAUCAACAUGAGGAUCACCCAUGUGAGGAUAUGAUACUAUGUACUUCGGUACAUAGUAUCAGAAGGCACAUUGA [Ex1-3: 42] (puzzle: Exclusion 1) : true
GGUGCGUAUGUGAGGAUAUGCUGGUCCUUGGCUCGGCAGAAGGCACAUGAGGAUCACCCAUGUGGUGUCGUACG [salish99_Bmod_ex4_063] (puzzle: Brourd's mod of Exclusion 4) : false
ACAACAAGCUUUUUGAACGUAGAACAUGAAGCUCUAGUCACAUGAGGAUCACCCAUGUCAGCCAGUUAGAUAGGUGA [JR_SV3TOV2_Sub065] (puzzle: Sensor v3, turn-off variant 2) : true
UUAUAUAGUGUGAGGAUAUGCUGGUCCUUGGAUCAGCAGAAGGCACAUGAGGAUCACCCAUGUAAUAUAUUAUU [JL bmx4 3.07] (puzzle: Brourd's mod of Exclusion 4) : true
AGGUGACAUGAGGAUCACCCAUGUGAGGAUAUCUGGAUACUCUUUAUUUUAGAUAUCCAGAGAAGGCACACCCU [Ex1-3: 8Z] (puzzle: Exclusion 1) : true
GCAUUGAGUGUGAGGAUAUGCUGGUCCUAAGAUCAGCAGAAGGCACAUGAGGAUCACCCAUGUGAAAACAAUGC [Mat - Exclusion 4 - JL Mod - D65] (puzzle: Brourd's mod of Exclusion 4) : false
AAGAAACAUGAGGAUCACCCAUGUGAGGAUAUGAGAAAGAAAAGAAAAGAAAGAAGACUCAGAAGGCACAAAGG [salish99-ex1_r3_040] (puzzle: Exclusion 1) : true

// switching to the query sequence
Lookup: Hi, just wondering whether AGUACUAACACGAAUGUGUUAGUACAAUAAGCUUGUGAAACAUGAGGAUCACCCAUGUCCUCAUAAGCUCGUCUUAU [salish99_TOv2_r3_032] (puzzle: Sensor v3, turn-off variant 2) shows apparent KD of MS2 coat protein of 40 nM or higher.
Found: true
